src = paper PMC8119466

Recorded % Phosphatase Activity (compared to DMSO) PRL-2 by entry
systemTested: recombinant PRL-2 (Homo sapiens, UniProt Q12974)
Construct: 6xHis (N, cleaved yes); made in house; host or cells: E. coli One Shot BL21 Star
Sequence (Q12974 whole entry): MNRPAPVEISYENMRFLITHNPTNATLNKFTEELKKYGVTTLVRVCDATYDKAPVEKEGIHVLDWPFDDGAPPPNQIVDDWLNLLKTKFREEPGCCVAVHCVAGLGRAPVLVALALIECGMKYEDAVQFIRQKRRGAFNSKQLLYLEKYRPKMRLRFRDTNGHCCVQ
experimentNotes: In vitro phosphatase assay (DiFMUP hydrolysis), PRL-2;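 note: PRL-2 activity read as DiFMUP hydrolysis after 20 min at room temperature with drug, enzyme first pre-reduced at 4 °C for 20 min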
Assay type: biochemical
cond: FDA-approved drug screen; compared to DMSO
Counter-ions that a name gives are not always drawn.
Enter your answer as a number in %; do not include the unit.

Fill in the blank: the reported % Phosphatase Activity (compared to DMSO) PRL-2 of C[N+](C)(C)CCOC(N)=O [Carbachol] is ____.
100

Fill in the blank: the reported % Phosphatase Activity (compared to DMSO) PRL-2 of CN1CCC(=C2c3ccccc3C=Cc3ccccc32)CC1 [Cyproheptadine hydrochloride] is ____.
102

Fill in the blank: the reported % Phosphatase Activity (compared to DMSO) PRL-2 of Cc1cc(Nc2cc(CN3CCOCC3)c3nc(C)c(Cc4ccc(Cl)cc4F)n3n2)n[nH]1 [LY2784544] is ____.
167
